Listed here: items and their measured inhibition at 10 µM.
- Target Or Test System: CYP3A4 (Homo sapiens, UniProt P08684)
- Sequence (P08684 whole entry): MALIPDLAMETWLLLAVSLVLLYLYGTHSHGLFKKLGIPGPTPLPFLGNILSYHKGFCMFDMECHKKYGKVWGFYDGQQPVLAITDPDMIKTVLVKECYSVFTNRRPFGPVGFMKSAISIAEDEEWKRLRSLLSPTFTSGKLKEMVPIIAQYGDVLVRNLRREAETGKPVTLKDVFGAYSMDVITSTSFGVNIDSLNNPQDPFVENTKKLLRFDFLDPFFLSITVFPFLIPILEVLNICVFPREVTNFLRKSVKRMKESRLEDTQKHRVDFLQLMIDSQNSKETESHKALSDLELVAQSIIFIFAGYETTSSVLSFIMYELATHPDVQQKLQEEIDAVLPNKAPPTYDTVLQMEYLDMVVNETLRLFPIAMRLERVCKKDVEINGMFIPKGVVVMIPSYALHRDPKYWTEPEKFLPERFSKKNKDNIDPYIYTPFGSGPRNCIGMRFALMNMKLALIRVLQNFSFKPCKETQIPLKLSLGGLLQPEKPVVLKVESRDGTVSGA
- Experiment Notes: Inhibition of CYP3A4 (unknown origin) at 10 uM
- Assay type: ADME
Outcome Measure: inhibition at 10 µM (%)

Compound	Outcome Measure	Assay Result
COc1cc2c(cc1Nc1ncc(Cl)c(Nc3ccccc3S(=O)(=O)C(C)C)n1)CC/C(=N\N1CCN(C)CC1)C2(C)C	inhibition at 10 µM	47.5
COc1cc2c(cc1Nc1ncc(Cl)c(Nc3ccccc3S(=O)(=O)C(C)C)n1)CCC(N)C2(C)C (configuration not stated)	inhibition at 10 µM	97

---

Listed here: items and their measured AUC(0-inf).
- Experiment Notes: AUCinfinity in cannulated Sprague Dawley rat at 10 mg/kg administered through oral gavage by LC/MS/MS analysis
- Type: ADME, organism-based
- Parameters: dose 10 mg/kg, time infinity, route oral
- Test Parameters: in vivo

Compound	AUC(0-inf) [ng·h/mL]
COc1cc2c(cc1Nc1ncc(Cl)c(Nc3ccccc3S(=O)(=O)C(C)C)n1)CCC(N)C2(C)C (configuration not stated)	10900
COc1cc2c(cc1Nc1ncc(Cl)c(Nc3ccccc3S(=O)(=O)C(C)C)n1)CC/C(=N\N1CCN(C)CC1)C2(C)C	3760

---

- Target Or Test System: CYP1A2 (Homo sapiens)
- Sequence (P05177 whole entry): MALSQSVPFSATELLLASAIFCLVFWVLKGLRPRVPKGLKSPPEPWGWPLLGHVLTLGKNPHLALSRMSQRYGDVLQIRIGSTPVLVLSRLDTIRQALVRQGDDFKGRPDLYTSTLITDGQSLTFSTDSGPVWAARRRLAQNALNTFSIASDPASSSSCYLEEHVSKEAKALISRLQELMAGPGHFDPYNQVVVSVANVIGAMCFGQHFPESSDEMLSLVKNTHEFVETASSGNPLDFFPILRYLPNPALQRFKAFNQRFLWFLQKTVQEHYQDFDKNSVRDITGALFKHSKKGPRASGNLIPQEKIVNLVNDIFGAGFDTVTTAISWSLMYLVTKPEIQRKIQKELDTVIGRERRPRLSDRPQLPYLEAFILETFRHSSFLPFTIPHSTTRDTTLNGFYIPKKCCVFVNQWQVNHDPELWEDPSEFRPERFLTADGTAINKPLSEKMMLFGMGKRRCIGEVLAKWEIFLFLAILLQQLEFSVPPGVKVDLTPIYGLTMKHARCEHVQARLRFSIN
- Experiment Notes: Inhibition of CYP1A2 (unknown origin) at 10 uM
- Type: ADME
Outcome Measure: inhibition at 10 µM

Compound	Assay Result
COc1cc2c(cc1Nc1ncc(Cl)c(Nc3ccccc3S(=O)(=O)C(C)C)n1)CCC(N)C2(C)C (configuration not stated)	9.5%
COc1cc2c(cc1Nc1ncc(Cl)c(Nc3ccccc3S(=O)(=O)C(C)C)n1)CC/C(=N\N1CCN(C)CC1)C2(C)C	7.2%

---

- Target Or Test System: UniProt:P11712
- Sequence (P11712 whole entry): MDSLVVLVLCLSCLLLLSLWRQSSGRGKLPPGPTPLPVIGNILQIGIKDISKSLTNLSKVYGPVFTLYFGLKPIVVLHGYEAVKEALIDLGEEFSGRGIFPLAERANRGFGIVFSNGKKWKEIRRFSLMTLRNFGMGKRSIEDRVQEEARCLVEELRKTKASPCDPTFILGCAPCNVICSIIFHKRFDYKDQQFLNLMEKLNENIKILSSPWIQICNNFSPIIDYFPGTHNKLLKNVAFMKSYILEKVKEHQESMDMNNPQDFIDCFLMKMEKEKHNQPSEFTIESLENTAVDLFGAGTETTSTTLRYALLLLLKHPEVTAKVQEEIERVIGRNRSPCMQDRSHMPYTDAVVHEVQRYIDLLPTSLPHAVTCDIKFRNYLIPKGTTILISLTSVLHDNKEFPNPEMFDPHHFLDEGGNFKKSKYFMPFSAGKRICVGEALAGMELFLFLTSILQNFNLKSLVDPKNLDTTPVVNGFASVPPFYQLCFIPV
- Experiment Notes: Inhibition of CYP2C9 (unknown origin) at 10 uM
- Assay type: ADME
Listed here: items and their measured inhibition at 10 µM.

Molecule	inhibition at 10 µM, %
COc1cc2c(cc1Nc1ncc(Cl)c(Nc3ccccc3S(=O)(=O)C(C)C)n1)CCC(N)C2(C)C (configuration not stated)	38
COc1cc2c(cc1Nc1ncc(Cl)c(Nc3ccccc3S(=O)(=O)C(C)C)n1)CC/C(=N\N1CCN(C)CC1)C2(C)C	17.1
